System: LOX IMVI melanoma
assay_comment: NCI-60 one-dose screen, 48 h (100 = growth as untreated, 0 = no growth, -100 = all killed)
condition_set: 10 µM unless noted
About 83,000 compounds went through this panel and 20% of them were active in at least one assay; those are over-represented in the sample as a whole.
For each of the compounds below, state its growth.
Note: unit % is implicit; provide only the numeric part.

Consider CCCCCCCCCCCCNC(=O)[C@H]1CSC(c2ccsc2)N1 (stereo not given in full) . Its measured growth is -89.5

Consider O=C(O)Cc1cccc(=O)c(O)c1C(=O)O . Its measured growth is 101

Consider O=C(Nc1ccncc1)C(=O)c1cn(S(=O)(=O)c2ccc(Oc3ccccc3)cc2)c2ccccc12 . Its measured growth is 91.3

Consider N/C(=N\S(=O)(=O)c1ccccc1)Nc1nc2ccccc2s1 . Its measured growth is 97.5

Consider COc1ccc(Nc2nn3c(-c4ccccc4)cc(-c4ccccc4)nc3c2C(N)=O)c(OC)c1 . Its measured growth is 54.6
